These measurements were taken from patent US8952024B2.

Tested on: bermudagrass (Cynodon dactylon)
Experiment: Test B pre-/postemergence plant response
Type: in vivo
Settings: Postemergence, 250 g ai/ha; scale 0 to 100 (0 no effect, 100 complete control)
Known Plant response rating, Bermudagrass of a selection of compounds
Respond using a number only.

Example entries begin here.
Compound: CCCc1ncc(C(=O)C2=C(O)CCCC2=O)c(=O)n1CCC [Compound 72]
Plant response rating, Bermudagrass: 85
--
Compound: CCOCCn1c(-c2ccccc2)ncc(C(=O)C2=C(O)CCCC2=O)c1=O [Compound 96]
Plant response rating, Bermudagrass: 98

Next:
State the recorded Plant response rating, Bermudagrass for this entry: O=C1CCCC(O)=C1C(=O)c1cnc(-c2ccc(Br)cc2)n(-c2ccccc2)c1=O [Compound 70]
98
